Tested on: NCI/ADR-RES ovarian
test_summary: NCI-60 one-dose screen, 48 h (100 = growth as untreated, 0 = no growth, -100 = all killed)
experimental_parameters: 10 µM unless noted
The panel holds about 83,000 compounds, 20% with a hit somewhere; the sample as a whole holds those more often.
Each entry belongs to exactly one class, chosen by where its growth falls: c1 (below 20%), c2 (20% to below 90%), c3 (90% or more)

Band for `COc1ccc(-c2cnc(-c3ccncc3-c3cccc(OC)c3)o2)cc1` ? c1

Band for `O=C(NNC(=O)c1cccc(Cl)c1)c1ccccc1` ? c3

Band for `CCCCCCCCCCCCCCCCCC1=NCCN1CCO` ? c2

Band for `CN1C2CCC1/C(=C\c1ccc(Cl)cc1)C(=O)/C2=C/c1ccc(Cl)cc1` ? c2

Band for `NNc1ccc(S(N)(=O)=O)cc1` ? c3

Band for `CCN(CC)CCNC(=O)C(F)(F)C(F)(F)C(F)(F)F` ? c3

Band for CCN1C(=O)N(CC)C2C1NN=c1s/c(=C\c3ccco3)c(=O)n12 (stereo unspecified) ? c1

Band for `COc1ccc2nc3ccccc3c(NCc3ccc(C)cc3)c2c1` ? c2

Band for C=C1C[C@@]2(C)C(CC[C@]3(C)C2CC=C2C4CC(C)(C)C[C@@H](OC(=O)/C(C)=C\C)[C@]4(C(=O)O)CC[C@]23C)C(C)(C)C1=O (stereo partly specified) ? c1

Band for `N=C(N)c1ccc(NCCNc2ccc(C(=N)N)cc2)cc1` ? c3

----------
Kindly supply the reported growth values for the records listed here.
System: MDA-MB-231 breast
test_summary: NCI-60 one-dose screen, 48 h (100 = growth as untreated, 0 = no growth, -100 = all killed)
experimental_parameters: 10 µM unless noted
About 83,000 compounds went through this panel and 20% of them were active in at least one assay; those are over-represented in the sample as a whole.
Write the number in % without appending the unit.

Answer with the recorded growth for the compound listed here: `CCOC(=O)CCN(CCC(=O)OCC)c1ccccc1` 111

Answer with the recorded growth for the compound listed here: `O=C(NNC(=O)c1cccc(Cl)c1)c1ccccc1` 113

Answer with the recorded growth for the compound listed here: `COc1ccc(/C=C/c2nc(NCCCN(C)C)c3ccccc3n2)cc1` 18.7

Answer with the recorded growth for the compound listed here: `COc1ccccc1-[n+]1cc(-c2ccc(-c3ccccc3)cc2)n2c1CCCCC2` 19.1

Answer with the recorded growth for the compound listed here: `O=C(CC(=O)c1cccc(Cl)c1)c1cccc(Cl)c1` 45.2

Answer with the recorded growth for the compound listed here: `Clc1cccc(CNc2c3ccccc3nc3ccccc23)c1` 29.4

----------
Tested on: SK-MEL-2 melanoma
test_summary: NCI-60 one-dose screen, 48 h
experimental_parameters: 10 µM unless noted
The panel holds about 83,000 compounds, 20% with a hit somewhere; the sample as a whole holds those more often. Activity calls are given as the source filed them. How the source made its calls: active means growth percent below 10; inactive means the rest.
The reply should name one outcome from active, inactive

Lab log entry: `CSC1=N/C(=C\c2cccc(OCc3ccc(Cl)cc3)c2)C(=O)N1` — outcome as called in the assay? inactive

Lab log entry: `Cc1c(C(=O)Nc2ccccc2F)sc2c(=O)[nH]cnc12` — outcome as called in the assay? inactive

Lab log entry: `COc1ccc(-c2ccc(-c3ccc(C(=N)N)s3)s2)cc1` — outcome as called in the assay? active

Lab log entry: `Nc1c(C(=O)C[C@@H](N)CO)ccc2c1C(=O)CCO2` — outcome as called in the assay? inactive

Lab log entry: CC(=O)C1CCC2C3CC(C)=C4CC(O)CCC4(C)C3CCC12C (stereo not drawn) — outcome as called in the assay? inactive

Lab log entry: CCN(CC)CCCC(C)Nc1ccnc2ccc(Oc3ccccc3)cc12 (stereo not drawn) — outcome as called in the assay? inactive

Lab log entry: CCN1C(=O)N(CC)C2C1N=C(SC)N2/N=C/C=C/c1ccccc1OC (stereo not drawn) — outcome as called in the assay? inactive

Lab log entry: `Nc1nc(NC2CC2)cc(-c2cccc(Cl)c2Cl)n1` — outcome as called in the assay? inactive

Lab log entry: `CCNCCCn1c2c(c3ccc(Cl)cc3c1=O)C(=O)c1cc(OC)cnc1-2` — outcome as called in the assay? inactive

Lab log entry: `COc1cc(NC(=O)CSc2nc3ccc(Cl)cc3c(=O)n2-c2ccccc2)cc(OC)c1OC` — outcome as called in the assay? inactive

Lab log entry: COc1ccc(C2NC(=O)c3cc4c(cc3N2)OCO4)cc1 (stereo not drawn) — outcome as called in the assay? inactive

Lab log entry: `Cc1ccc(Nc2cccc3ccccc23)cc1` — outcome as called in the assay? inactive

Lab log entry: `COc1ccc(CNc2c3ccccc3nc3ccccc23)cc1F` — outcome as called in the assay? inactive

Lab log entry: `O=C(O/C(=C/c1ccccc1)C(F)(F)F)c1ccccc1` — outcome as called in the assay? inactive

Lab log entry: COc1cccc(C2C(C#N)=C(N)Oc3cc4c(cc32)OCO4)c1 (stereo not drawn) — outcome as called in the assay? inactive

Lab log entry: CCOC(=O)C1=C(C(=O)OCC)N(c2cc(OC)c(OC)c(OC)c2)C(N)=C(C#N)C1c1cc(=O)[nH]c2ccccc12 (stereo not drawn) — outcome as called in the assay? inactive

Lab log entry: `COCc1nc(NS(=O)(=O)c2ccc(N)cc2)nc(C)c1Br` — outcome as called in the assay? inactive

Lab log entry: `NC(N)=NC1CCCCC1` — outcome as called in the assay? inactive

Lab log entry: CCOC(=O)C(Cc1ccccc1)n1c(O)c(/C=N/c2ncc(Cc3ccc(Cl)cc3Cl)s2)sc1=S (stereo not drawn) — outcome as called in the assay? active

Lab log entry: `CCOC(=O)c1ccc2c(c1)nc(-c1ccc(Cl)cc1)n2-c1cc(C(C)(C)C)[nH]n1` — outcome as called in the assay? inactive

Lab log entry: `O=C(c1ccccc1)C(CCc1ccccn1)CCc1ccccn1` — outcome as called in the assay? inactive

Lab log entry: `C[Si](C)(C)C(c1ccccc1)c1ccccc1` — outcome as called in the assay? inactive

Lab log entry: CC1CCCN(CCCCOc2ccc(-c3ccc(C#N)cc3)cc2)C1 (stereo not drawn) — outcome as called in the assay? inactive
